target-system: human MDM2 (GST-hMDM2 1-188), interaction with biotinylated-p53 (1-83) (Homo sapiens, UniProt Q00987)
Construct: Amino acid residues 1-188 of human MDM2 were expressed
Sequence (Q00987 1-188): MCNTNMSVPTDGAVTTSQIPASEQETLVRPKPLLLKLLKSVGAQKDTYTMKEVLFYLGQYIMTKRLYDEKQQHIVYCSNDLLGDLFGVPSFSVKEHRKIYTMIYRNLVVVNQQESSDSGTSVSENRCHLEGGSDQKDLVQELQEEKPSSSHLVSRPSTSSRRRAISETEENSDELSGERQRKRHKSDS
method-description: improved HTRF assay (HTRF2 assay), inhibition of HDM2-p53 interaction
experimental-context: 0.2 nM GST-hMDM2, 0.5 nM biotinylated-p53, 100 mM KF
pIC50: −log10 of the molar value.
endpoint-name: pIC50

A selection of reference data follows.
molecule	pIC50
CC(C)(O)CS(=O)(=O)C[C@H](C1CC1)N1C(=O)[C@@H](CC(=O)O)O[C@H](c2cccc(Cl)c2)[C@H]1c1ccc(Cl)cc1 (single isomer, unassigned) [Example 288]	> 9.00
CC[C@@H](CN(c1ncccc1F)S(=O)(=O)C1CC1)N1C(=O)[C@@H](CC(=O)O)O[C@H](c2cccc(Cl)c2)[C@H]1c1ccc(Cl)cc1 (single isomer, unassigned) [Example 176]	> 9.00

Consider the additional molecule presented here.
Challenge: Query: pIC50; subject: CC[C@@H](CS(=O)(=O)C(C)(C)C)N1C(=O)[C@@H](CC(=O)O)O[C@H](c2cc(F)cc(Cl)c2)[C@H]1c1ccc(Cl)c(F)c1 (single isomer, unassigned) [Example 425]
Response given: > 9.00
